# test.name: Solubility in PBS at pH 7
# Type: physicochemical
value.type: solubility (µM)
The reply should contain only the number, in µM.

// sample O=C(Cc1ccc(Cl)cc1)Nc1ccc(CC2COC(=O)N2)cc1 (racemic) , its solubility was 7

Entry COc1cc(NC(=O)Cc2ccc(C(F)(F)F)cc2)ccc1C[C@H]1COC(=O)N1 ; solubility = 129

For COc1cc(NC(=O)Cc2ccc(Cl)cc2F)ccc1C[C@H]1COC(=O)N1 the compound record lists solubility as 153

Kindly note the recorded solubility for COc1cc(NC(=O)Cc2ccc(Cl)cc2)ccc1C[C@H]1COC(=O)N1 , which is 161

The recorded solubility for entry COc1cc(NC(=O)C2CCc3cc(Cl)ccc32)ccc1C[C@H]1COC(=O)N1 (stereo not given in full) equals 57

COc1cc(NC(=O)Cc2ccc(Br)cc2)ccc1C[C@H]1COC(=O)N1 yielded solubility of 90

The compound CCOc1cc(NC(=O)Cc2ccc(Cl)cc2)ccc1C[C@H]1COC(=O)N1 showed solubility equal to 76

The recorded solubility for entry COc1cc(NC(=O)Cc2c(F)cc(Cl)cc2F)ccc1C[C@H]1COC(=O)N1 equals 7

Value of measured solubility for the entry COc1cc(NC(=O)Cc2ccc(Cl)cc2Cl)ccc1C[C@H]1COC(=O)N1 : 28

Values from ChEMBL document CHEMBL5579865
